Field: apparent Kd. Provide a value for each of the sequences that follow.
Test system: MS2 coat protein
Test Protocol: apparent Kd, MS2 coat protein; higher = weaker binding; RNA-MaP array; tryptophan 2.4 mM where present
Details: ligand present: tryptophan; designed as: ON switch for tryptophan
One number for each entry, in nM.

* UUUGGCGGCGAUCUGGGUUUACCAGAUCGGCGAGGACCGGUACGGCCGCCACUCGUGUUUCUUUGACAUGAGGAUCACCCAUGUA | 39.1
* ACAUGAGGAUCACCCAUGUACAUCACCCGACGAGGACCGGUACGGCCGCCACUCGGGUAUAUAUAUACAUCGGGUGGUUUUGCAU | 17.3
* CACAAUUUGUCGGCCGCCACUAAGGUAACUUUUCUCACAUGAGGAUCACCCAUGUGCCCGAAACUUAGGACCGGGAUAAUGGGUG | 45.3

Your task in this section: give apparent Kd for each listed record.
1. ACGUAGAAGUCGGCCGCCACUGAUUUCAUGUUCAACAUGAGGAUCACCCAUGUACCUUAUGUUAACAGGACCGGGACGUAUACGA
2. UGUCAGCGAAAGUUGACAUGUCUUACCGGUCGAGGACCGGUACGGCCGCCACUCGAUCUCUCGCACAUGAGGAUCACCCAUGUUG
3. AAAUAAACCUCGGCCGCCACUCGCCAUGAGGAUCACCCAUGUAACAUGAGGAUCACCCAUGUACAGAGGACCGGGAGGUCCUAGU
4. UUUAUAUAGACGGCCGCCACUGGAAUUAAUACAUGAGGAUCACCCAUGUAUAGAGAAUAAUAAUACAGGACCGGGUCUUCAUGAU

Reply:
55
15.1
100
12

----------
System: MS2 coat protein
Test Protocol: apparent Kd, MS2 coat protein; higher = weaker binding; RNA-MaP array; tryptophan 2.4 mM where present
Details: designed as: OFF switch for tryptophan; no ligand
Observation Type: apparent Kd (nM)
Answers are plain numbers, in nM.

Before answering, review these 5 worked examples.
• CCUAUGCAGUCGGCCGCCACUGAACAUGAGGAUCACCCAUGUAAUUAAAAUUAUGAUCCUGAAAUCAGGACCGGGACUGUAUAGG = 218
• CUAUAAGUACCGGUCCUCAGAUCCUCAUGACGAGGACCGGUACGGCCGCCACUCGAAACAUGAGGAUCACCCAUGUAAUAACAUU = 19.8
• GUUAUAUACUCGGCCGCCACUGAGAGAGUCAUGUAAACAUGAGGAUCACCCAUGUAAUAUAUAUACAGGACCGGGAGUAUAGUAA = 14.5
• UAUACAUGGUAUAAAUAUAUAUAUAAGAAACGAGGACCGGUACGGCCGCCACUCGUGCCGGAAACAUGAGGAUCACCCAUGUAUU = 37.6
• ACACAAUACAUGAGGAUCACCCAUGUAAAACGAGGACCGGUACGGCCGCCACUCGAAUACUGUAAUCCUCGGAAUAUUAAGUGAA = 41

Your task in this section: give apparent Kd for each listed record.
1. AAUUAUCAGUCGGCCGCCACUGACACAUGAGGAUCACCCAUGUAACUUGGGAUAAAUUUAAUAAACAGGACCGGGACAAAGGCUA
2. GGAGCUACGUCGGCCGCCACUAGCGGUUAUUACGUGUACAUGAGGAUCACCCAUGUAAUAUGGCUUAGGACCGGGACGUAGCUCC

Reply:
1: 58.8; 2: 22.5

----------
System: MS2 coat protein
Test Protocol: apparent Kd, MS2 coat protein; higher = weaker binding; RNA-MaP array; tryptophan 2.4 mM where present
Details: ligand present: tryptophan; designed as: OFF switch for tryptophan
Assign condition met to entries whose apparent Kd meets or exceeds 50 nM; assign condition not met to the rest.

Ask: Tell me whether apparent Kd is at least 50 nM here: CCUAUGCAGUCGGCCGCCACUGAACAUGAGGAUCACCCAUGUAAUUAAAAUUAUGAUCCUGAAAUCAGGACCGGGACUGUAUAGG
Reply: condition met

Ask: Tell me whether apparent Kd is at least 50 nM here: UAAUCCGGUCCUCGAUAACAUGGGUGAAUACGAGGACCGGUACGGCCGCCACUCGAUAACAUGAGGAUCACCCAUGUAAUAAUAA
Reply: condition met

Ask: Tell me whether apparent Kd is at least 50 nM here: GUUAUAUACUCGGCCGCCACUGAGAGAGUCAUGUAAACAUGAGGAUCACCCAUGUAAUAUAUAUACAGGACCGGGAGUAUAGUAA
Reply: condition not met

Ask: Tell me whether apparent Kd is at least 50 nM here: AAUGUAUGGCACAUGAGGAUCACCCAUGUGCGAGGACCGGUACGGCCGCCACUCGGUCCUGGGAUCUUAUUACUAUACAUUAAUG
Reply: condition not met

Ask: Tell me whether apparent Kd is at least 50 nM here: GCCGCUGCCGCGAUAUGUAUGGGUGUGUAACGAGGACCGGUACGGCCGCCACUCGCGAUCGCACAUGAGGAUCACCCAUGUGUCC
Reply: condition met

Ask: Tell me whether apparent Kd is at least 50 nM here: CUCAUCCACGCGGCCGCCACUAUAUUGUGGUGCGAAUGUGUCGUAAUACAUGAGGAUCACCCAUGUAGGACCGGGCGUGGAUGAG
Reply: condition met

----------
System: MS2 coat protein
Test Protocol: apparent Kd, MS2 coat protein; higher = weaker binding; RNA-MaP array
Details: designed as: OFF switch for flavin mononucleotide; no ligand
Assign TRUE to entries whose apparent Kd meets or exceeds 9 nM; assign FALSE to the rest.

• CCUAACUGCGAGAAGGUACAGCGAUAGUGACUGUAAGGAUAUCGGGCGGUGCAUAUCUUAGUAAUACAUGAGGAUCACCCAUGU = FALSE

Ask: Tell me whether apparent Kd is at least 9 nM here: UUGCAGGCAGGAUAUACGGUAUAUAACAUGAGGAUCACCCAUGUUCUUCACGAUCCCUGCGUAGAAGGGCCACAUU
Reply: FALSE

Ask: Tell me whether apparent Kd is at least 9 nM here: AGCACAAUAGGAUAUACAUGAGGAUCACCCAUGUAGAAAUUUGGUACCCGGGUGUCUUGUAGAAGGAUAGAAGA
Reply: TRUE

Ask: Tell me whether apparent Kd is at least 9 nM here: GUCUCACAGAUAGGAUAUGGUUUUCACAUGAGGAUCACCCAUGUAAAUCCUAAAGUAAGUGGAGGCCAGAAGGAUCCGGUACAG
Reply: TRUE

Ask: Tell me whether apparent Kd is at least 9 nM here: UUGCUCCAUCAGAAGGUCUACGCACAUGAGGAUCACCCAUGUUCUGGAAUCAUCUUGUGUGCCAAGAAGGAUAUGACUUCAAGU
Reply: TRUE

Ask: Tell me whether apparent Kd is at least 9 nM here: AGACCAUCCUUAGGAUAUGGCUAUCUUAUCAAGCCAGAAGGAAGGGCCUCAUCUAACAUGAGGAUCACCCAUGUGCGCAAGUUU
Reply: TRUE

----------
System: MS2 coat protein
Test Protocol: apparent Kd, MS2 coat protein; higher = weaker binding; RNA-MaP array; tryptophan 2.4 mM where present
Details: ligand present: tryptophan; designed as: OFF switch for tryptophan
Observation Type: apparent Kd
Kindly write the number and append the unit.

Before answering, review these 2 worked examples.
* CUUCGCAUAGGAAAACUAUGUGAAGAAAAUCGAGGACCGGUACGGCCGCCACUCGUCCUCAACAUGAGGAUCACCCAUGUAAUAA | 40.1 nM
* UGACAGAUAACCGCUGGUGCUCUCGAGUUGCGAGGACCGGUACGGCCGCCACUCGACAACAUGAGGAUCACCCAUGUUGCGGGUC | 49.8 nM

Your task in this section: give apparent Kd for each listed record.
1. AUAAUAUAGACGGCCGCCACUAUAAACAUGAGGAACAUGAGGAUCACCCAUGUAUGAGGAUCACCUAGGACCGGGUCAUAUAUUA
2. CGCAACAUGAGGAUCACCCAUGUAAUGACGCGAGGACCGGUACGGCCGCCACUCGCCUGGCAGUGAGCGCAUGCGGCCUGGGUAU

Reply:
42 nM
12.2 nM

----------
Test system: MS2 coat protein
Test Protocol: apparent Kd, MS2 coat protein; higher = weaker binding; RNA-MaP array
Details: ligand present: tryptophan; designed as: OFF switch for tryptophan
Field: apparent Kd. Provide a value for each of the sequences that follow.
Give bare numbers, in µM.

- CAUCGUCGGUCGGCCGCCACUACUGGACAUGAGGAUCACCCAUGUGGCCCGCUGUAUUAACCGCGUAGGACCGGGACGGGAGGUA: 0.0329
- AAUGGGCGAGUAGAGCAUAAUUUCCACUCCCGAGGACCGGUACGGCCGCCACUCGUUCGCUCACAUGAGGAUCACCCAUGUGGUC: 0.0572
- GCUACACAGGACCGUACUAAGGAUUCGCCUCGAGGACCGGUACGGCCGCCACUCGUUGCGCGACAUGAGGAUCACCCAUGUGUUC: 0.0367
- UGCCUAAAGUCGGCCGCCACUGAUGGUAUCCUCUCCUCGAGGUCACACAUGAGGAUCACCCAUGUCAGGACCGGGACUAGUGAGA: 0.0104

Then there is this sequence:
Ask: Give a short answer stating reported apparent Kd for UUUAGUCAAUCGGCCGCCACUGACAUGAGGAUCACCCAUGUAGGUAAGGAUCAACCUCGAAAGUACAGGACCGGGAUUCGCCUCU .
Reply: 0.084
